Origin of measurements: ChEMBL document CHEMBL1828587

assay: Oral bioavailability in rat at 10 mg/kg; type: ADME, organism-based; conditions: in vivo
quantity_measured: bioavailability (%)

chemical_string	recorded_result
CCCN(CCC)c1c(C)c(Nc2ccc(OC)cc2Cl)nc2ccnn12	16

* * *

biological target: Corticotropin-releasing factor receptor 1 (Homo sapiens, UniProt P34998); experiment: Displacement of [125I]-CRF from human CRF1 receptor expressed in CHO-K1 cells after 2 hrs by gamma counting
Sequence (P34998 whole entry): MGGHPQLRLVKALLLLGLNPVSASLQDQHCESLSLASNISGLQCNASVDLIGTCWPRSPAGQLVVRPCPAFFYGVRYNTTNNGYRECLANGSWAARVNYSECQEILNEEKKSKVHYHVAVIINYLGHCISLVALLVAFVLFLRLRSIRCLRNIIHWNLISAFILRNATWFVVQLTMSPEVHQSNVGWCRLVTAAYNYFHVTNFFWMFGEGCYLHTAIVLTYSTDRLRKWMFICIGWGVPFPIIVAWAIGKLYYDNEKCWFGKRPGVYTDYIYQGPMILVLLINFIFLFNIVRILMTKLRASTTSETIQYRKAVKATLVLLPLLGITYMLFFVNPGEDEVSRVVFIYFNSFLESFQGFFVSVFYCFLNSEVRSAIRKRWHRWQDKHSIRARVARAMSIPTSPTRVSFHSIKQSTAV
Criterion: IC50 strictly less than 60 nM. Met: rule met. Not met: rule not met.

chemical_string	system_under_test	assigned_category
CCCN(CCC)c1c(C)c(Nc2ccc(OC)cc2Cl)nc2nccn12	Corticotropin-releasing factor receptor 1 (Homo sapiens, UniProt P34998)	rule met
CCCN(CCC)c1c(C2CCCC2)c(Nc2ccc(OC)cc2Cl)nc2ccnn12	Corticotropin-releasing factor receptor 1 (Homo sapiens, UniProt P34998)	rule not met
CCCN(CCC)c1cc(N(C)c2ccc(OC)cc2Cl)nc2nccn12	Corticotropin-releasing factor receptor 1 (Homo sapiens, UniProt P34998)	rule not met
CCCN(CCC)c1cc(N(CC)c2ccc(OC)cc2Cl)nc2ccnn12	Corticotropin-releasing factor receptor 1 (Homo sapiens, UniProt P34998)	rule met
CCCN(CCC)c1cc(N(C)c2ccc(OC)cc2Cl)nc2ncnn12	Corticotropin-releasing factor receptor 1 (Homo sapiens, UniProt P34998)	rule met
CCCN(CCC)c1c(C(C)C)c(Nc2ccc(OC)cc2Cl)nc2ccnn12	Corticotropin-releasing factor receptor 1 (Homo sapiens, UniProt P34998)	rule not met
C=C(C)CN(c1cc(N(CCC)CCC)n2nccc2n1)c1ccc(OC)cc1Cl	Corticotropin-releasing factor receptor 1 (Homo sapiens, UniProt P34998)	rule not met
CCCN(CCC)c1cc(N(CCC)c2ccc(OC)cc2Cl)nc2ccnn12	Corticotropin-releasing factor receptor 1 (Homo sapiens, UniProt P34998)	rule not met
CCCN(CCC)c1cc(N(C)c2ccc(OC)cc2Cl)nc2ccnn12	Corticotropin-releasing factor receptor 1 (Homo sapiens, UniProt P34998)	rule met
CCc1ccc(Oc2nc3ccnn3c3c2ccn3C(CC)CC)c(OC)c1	Corticotropin-releasing factor receptor 1 (Homo sapiens, UniProt P34998)	rule met

* * *

test: Total clearance in rat at 1 mg/kg, iv; assay type: ADME, organism-based; design: dose 1 mg/kg, route intravenous; conditions: in vivo

chemical_string	unit_info	clearance
CCCN(CCC)c1c(C)c(Nc2ccc(OC)cc2Cl)nc2ccnn12	mL/min/kg	186

* * *

experiment: Half life in rat at 10 mg/kg, po; format: ADME, organism-based; set-up: dose 10 mg/kg, route oral; settings: in vivo

chemical_string	half-life [h]
CCCN(CCC)c1c(C)c(Nc2ccc(OC)cc2Cl)nc2ccnn12	3.4

* * *

Listed here are compounds together with their documented pIC50.
target: Corticotropin-releasing factor receptor 1 (Homo sapiens, UniProt P34998); experiment: Displacement of [125I]-CRF from human CRF1 receptor expressed in CHO-K1 cells after 2 hrs by gamma counting
pIC50: −log10 of the molar value.

chemical_string	system_under_test	pIC50
CCC(CC)Nc1cc(Nc2ccc(OC)cc2Cl)nc2ccnn12	Corticotropin-releasing factor receptor 1 (Homo sapiens, UniProt P34998)	7.85
CCC(CC)Nc1c(C)c(Nc2ccc(OC)cc2Cl)nc2ccnn12	Corticotropin-releasing factor receptor 1 (Homo sapiens, UniProt P34998)	8.13
CCCc1c(Nc2ccc(OC)cc2Cl)nc2ccnn2c1N(CCC)CCC	Corticotropin-releasing factor receptor 1 (Homo sapiens, UniProt P34998)	7.49
CCCN(CCC)c1c(C)c(Nc2ccc(OC)cc2Cl)nc2ccnn12	Corticotropin-releasing factor receptor 1 (Homo sapiens, UniProt P34998)	8.10
